biological target: c-kit mutant D816V (Homo sapiens, UniProt P10721, D816V/DEL694-753); construct: residues 551-934, kinase insertion domain residues 694-753 deleted; 6x-histidine (N); made in house; host or cells: E. coli Arctic Express (DE3) RIL (Stratagene); assay: c-Kit mutant D816V biochemical assay, AlphaScreen; details: c-kit D816V biochemical inhibitory activity; read-out: Biochemical activity (IC50 μM) Kit D816V
Sequence (P10721 with tags, fused parts or gaps DEL694-753/D816V): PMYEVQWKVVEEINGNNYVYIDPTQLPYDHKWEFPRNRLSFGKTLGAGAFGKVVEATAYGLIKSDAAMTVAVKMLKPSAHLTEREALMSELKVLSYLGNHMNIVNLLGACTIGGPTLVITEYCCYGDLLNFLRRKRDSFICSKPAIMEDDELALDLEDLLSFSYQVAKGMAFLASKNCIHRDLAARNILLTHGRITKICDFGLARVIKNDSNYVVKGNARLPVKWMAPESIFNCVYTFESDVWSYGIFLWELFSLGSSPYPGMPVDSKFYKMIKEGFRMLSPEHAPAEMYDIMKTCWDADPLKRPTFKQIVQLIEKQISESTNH
Exercise: state measured IC50 for each of the compounds provided.

| compound | IC50 |
| --- | --- |
| O=C(Nc1cccnc1)N1CCN(c2ncnc3[nH]ccc23)CC1 | 0.0001 to 1 µM |

Can you give me IC50 for all of these, one by one?
1. C[C@H](NC(=O)N1CCN(c2ncnc3[nH]c(-c4ccc(F)cc4)cc23)CC1(C)C)c1cccc(OC(F)F)c1
2. Cn1cc(-c2cc3c(N4CCC(NS(=O)(=O)c5ccc(Cl)cc5)CC4)ncnc3[nH]2)cn1
3. COc1cc(NC(=O)N2CCN(c3ncnc4[nH]c(-c5ccccc5)cc34)CC2)cc(OC)c1

1: 0.0001 to 1 µM; 2: 0.0001 to 1 µM; 3: 1 to 10 µM

Can you give me IC50 for all of these, one by one?
1. COc1cccc([C@H](C)NC(=O)N2CCN(c3ncnc4[nH]c(-c5ccncc5)cc34)C[C@@H]2C)c1
2. C[C@H](NC(=O)N1CCN(c2ncnc3[nH]c(-c4ccc(F)cc4)cc23)CC1)c1cccc2ccccc12
3. Nc1ccc(-c2ncnc3[nH]c(-c4ccc(F)cc4F)cc23)c(F)c1
4. Cc1cc2c(-c3ccc(NS(=O)(=O)c4ccc(Cl)c(Cl)c4)cc3)ncnc2[nH]1
5. Cc1ccc(S(=O)(=O)NC2CCN(c3ncnc4[nH]c(-c5cnn(C)c5)cc34)CC2)cc1

1: 0.0001 to 1 µM; 2: 0.0001 to 1 µM; 3: 0.0001 to 1 µM; 4: 1 to 10 µM; 5: 0.0001 to 1 µM

Can you give me IC50 for all of these, one by one?
1. Cc1cc2c(N3CCC(NS(=O)(=O)c4ccc(OC(F)F)cc4)CC3)ncnc2[nH]1
2. Cc1ccc(-c2cc3c(C4=CCC(NS(=O)(=O)c5ccc(OC(F)(F)F)cc5)CC4)ncnc3[nH]2)cn1 (stereo not shown)
3. NS(=O)(=O)c1ccc(-c2cc3c(N4CCN(C(=O)Nc5ccc(OC(F)(F)F)cc5)CC4)ncnc3[nH]2)cc1

1: 10 to 200 µM; 2: 0.0001 to 1 µM; 3: 1 to 10 µM

Values from patent US10227357B2
